- Tested on: POLR2A Ser2 phosphorylation (CDK9)
- Assay Procedure: POLR2A Ser2 phosphorylation imaging assay in MCF-7 cells
- Format: cell-based
- Assay Setup: Homo sapiens, MCF7, 2 h, MCF-7 cells, 2 hours; read-out: POLR2A Ser2 phosphorylation IC50
Readout Type: IC50 (µM)

Compound | Readout Type | Censoring Qualifier | Observed Result
CCNS(=O)(=O)N1CC[C@H](Nc2nc(N[C@@H](CO)C3CC3)nc3c2ncn3C(F)F)C1 | IC50 | = | 4.2
CCn1cnc2c(N[C@H]3CCN(S(=O)(=O)NC)C3)nc(N[C@@H](C)[C@@H](O)C(F)(F)F)nc21 (single isomer, unassigned) | IC50 | = | 20.2
CC[C@H](Nc1nc(N[C@H]2CCN(S(=O)(=O)N[C@H]3CCOC3)C2)c2ncn(CC)c2n1)[C@@H](C)O | IC50 | > | 30
CC[C@H](Nc1nc(N[C@H]2CCN(S(=O)(=O)N3CC(F)C3)C2)c2ncn(CC)c2n1)[C@@H](C)O | IC50 | > | 30
CCNS(=O)(=O)N1CC[C@H](Nc2cc(N[C@@H](CC)[C@@H](C)O)nc3c2ncn3CC)C1 | IC50 | = | 6.1
